# Tested on: Nucleic Acid
# measurement description: Binding affinity to DNA minor groove region CATGGCCATG assessed as change in melting temperature at 6 uM by thermal denaturation study
# Format: nucleic-acid assay
measure: ΔTm (°C)
Report only the number, with the unit °C understood.

Solved cases below.
## Input Would you kindly share the measured ΔTm for `Cn1cc(NC(=O)c2cc(NC(=O)c3cc(NC=O)cn3C)cn2C)cc1C(=O)NCCC(=N)N` ?
## Output 0

## Input Need ΔTm, item `Cn1cc(NC(=O)c2cc(NC(=O)OCc3ccccc3)cn2C)cc1C(=O)NCCc1c[nH]c2ccccc12`
## Output 23

# input for lookup
## Input GET /values?readout=ΔTm&item= `COC(=O)Nc1cc(C(=O)Nc2cc(C(=O)OCCc3ccccc3)n(C)c2)n(C)c1`
## Output 0

====

# Test system: Nucleic Acid
# measurement description: Binding affinity to DNA minor groove region CATGGCCATG assessed as melting temperature at 6 uM by thermal denaturation study
# Type: nucleic-acid assay
Tm for assorted compounds
Number plus unit, in that order.

## Input Please report the recorded Tm for `Cn1cc(NC(=O)c2cc(NC(=O)OCc3ccccc3)cn2C)cc1C(=O)NCCc1c[nH]c2ccccc12` .
## Output 70 °C

## Input Can you look up the measured Tm of `COC(=O)Nc1cc(C(=O)Nc2cc(C(=O)OCCc3ccccc3)n(C)c2)n(C)c1` for me?
## Output 47 °C

## Input Tm for `Cn1cc(NC(=O)c2cc(NC(=O)c3cc(NC=O)cn3C)cn2C)cc1C(=O)NCCC(=N)N` ?
## Output 45 °C

## Input Requested field: Tm. Item: `Cn1cc(NC(=O)c2cc(NC(=O)Nc3ccccc3)cn2C)cc1C(=O)NCCc1c[nH]c2ccccc12`
## Output 45 °C

## Input I am curious: what Tm value has been reported for `Cn1cc(NC(=O)c2cc(NC(=O)CNC(=N)N)cn2C)cc1C(=O)NCCC(=N)N` ?
## Output 48 °C

Now for a further compound.
## Input What Tm value was documented for this compound, `Cn1cc(NC(=O)c2cc(NC(=O)OCC(Cl)(Cl)Cl)cn2C)cc1C(=O)NCCc1c[nH]c2ccccc12` ?
## Output 68 °C

====

# System: Nucleic Acid
# measurement description: Binding affinity to DNA minor groove region CGCAAATTTGCG assessed as melting temperature at 6 uM by thermal denaturation study
# Format: nucleic-acid assay
measure: Tm (°C)
Return type: number; implicit unit °C.

Field: example entries. Status: answers known.
## Input # get_value(readout='Tm', item= `Cn1cc(NC(=O)c2cc(NC(=O)c3cc(NC=O)cn3C)cn2C)cc1C(=O)NCCC(=N)N` )
## Output 65

## Input Need Tm, item `Cn1cc(NC(=O)c2cc(NC(=O)CNC(=N)N)cn2C)cc1C(=O)NCCC(=N)N`
## Output 69

## Input What does the data say about its Tm? Entry: `Cn1cc(NC(=O)c2cc(NC(=O)Nc3ccccc3)cn2C)cc1C(=O)NCCc1c[nH]c2ccccc12`
## Output 53

## Input I'd like to know its Tm. The compound in question is `Cn1cc(NC(=O)c2cc(NC(=O)OCc3ccccc3)cn2C)cc1C(=O)NCCc1c[nH]c2ccccc12`
## Output 65

## Input Given the compound `Cn1cc(NC(=O)c2cc(NC(=O)OCC(Cl)(Cl)Cl)cn2C)cc1C(=O)NCCc1c[nH]c2ccccc12` , what is its reported Tm?
## Output 59

// below: Tm requested for another compound
## Input What measured Tm goes with `COC(=O)Nc1cc(C(=O)Nc2cc(C(=O)OCCc3ccccc3)n(C)c2)n(C)c1` ?
## Output 71
